Tested on: TK-10 renal
Assay: NCI tumour cell line growth inhibition, 48 h; in the data active means GI50 below about 0.43 µM; inactive means the rest
Your reply should match one of these outcome classes. active, inactive

Lookup: Hi, sorry to bother you, what did the test record for Cn1cc(-c2csc(-c3cn(C(=O)OC(C)(C)C)c4ccccc34)n2)c2cccnc21 ?
Found: inactive

Lookup: Hi, sorry to bother you, what did the test record for CS(=O)(=O)CCNCc1ccoc1-c1ccc2ncnc(Nc3ccc(OCc4ccccc4)cc3)c2c1 ?
Found: inactive

Lookup: Hi, sorry to bother you, what did the test record for C[C@@H]1Cc2c(ccc3[nH]ncc23)[C@@H](c2ccc(NC3CN(CCCF)C3)cn2)N1CC(F)(F)F ?
Found: inactive

Lookup: Hi, sorry to bother you, what did the test record for CNc1nc(-c2ccc3c(N)n[nH]c3c2)cc(N2C[C@@H](C(=O)NC3CCCCC3)CC[C@H]2C)n1 ?
Found: active

Lookup: Hi, sorry to bother you, what did the test record for N#Cc1cc2c(cc1Cl)SC(=Nc1ccccc1)N(S(=O)(=O)c1ccc(Br)s1)S2(=O)=O ?
Found: inactive

Lookup: Hi, sorry to bother you, what did the test record for CSc1nc2ccc(C)cc2cc1/C=C1/C=C(c2ccccc2)NC1=O ?
Found: inactive

Lookup: Hi, sorry to bother you, what did the test record for COc1ccc(F)cc1-c1ccnc2[nH]c(C3=CCN(C4CCC(CC(=O)O)CC4)CC3)cc12 (centres undefined) ?
Found: active

Lookup: Hi, sorry to bother you, what did the test record for CC1=C(SCCC(=O)OC(C[Se]C2=C(C)C(=O)c3ccccc3C2=O)C(=O)NC(C)(C)C)C(=O)c2ccccc2C1=O (centres undefined) ?
Found: inactive

Lookup: Hi, sorry to bother you, what did the test record for Cc1cc2nc(-c3ccc(O)c(O)c3)n(Cc3ccc(O)c(O)c3)c2cc1C ?
Found: inactive
